Kindly state IC50 for each of the entries shown.
Target: P2X7 (IL-1β release from THP-1 cells) (Homo sapiens (Human), UniProt Q99572)
Sequence (Q99572 whole entry): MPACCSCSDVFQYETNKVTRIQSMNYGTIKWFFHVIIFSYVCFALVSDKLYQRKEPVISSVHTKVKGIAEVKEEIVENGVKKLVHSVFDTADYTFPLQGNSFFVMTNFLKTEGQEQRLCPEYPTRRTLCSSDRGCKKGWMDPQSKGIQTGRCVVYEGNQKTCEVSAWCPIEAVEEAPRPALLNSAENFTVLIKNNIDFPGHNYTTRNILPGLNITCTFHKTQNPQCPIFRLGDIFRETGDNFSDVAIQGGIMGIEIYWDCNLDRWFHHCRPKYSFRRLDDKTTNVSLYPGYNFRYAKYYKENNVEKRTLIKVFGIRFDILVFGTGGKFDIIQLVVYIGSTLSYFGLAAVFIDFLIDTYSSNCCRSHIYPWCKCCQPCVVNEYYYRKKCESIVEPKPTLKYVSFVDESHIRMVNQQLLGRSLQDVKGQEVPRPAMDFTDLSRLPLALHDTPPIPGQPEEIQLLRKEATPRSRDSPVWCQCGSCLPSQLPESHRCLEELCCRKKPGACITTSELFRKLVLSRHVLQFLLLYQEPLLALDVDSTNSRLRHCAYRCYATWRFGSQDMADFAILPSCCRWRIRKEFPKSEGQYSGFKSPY
Assay: IL-1β release assay
Assay type: cell-based
Experimental: IL-1β release assay: The activation of P2X7 by ATP leads to a fast transient activation of cells resulting in influx of Ca^2+ followed by conversion of pro-IL-1β to active IL-1β. The functional activity of P2X7 compounds was measured by the release of mature […] in the culture medium of THP-1 cells, detected by sandwich ELISA. […] The cells were centrifuged, supernatant was collected and the presence of mature IL-1β was detected using Dual human IL-1b kit following manufacturer's instruction. […]

Incoming: Which IC50 is listed for CN1CCOC(Cn2cc(C(=O)NCC3CCC(F)(F)CC3)c3c(Cl)cccc32)C1 (stereo not shown) ?
Outgoing: 10 to 100 nM

Incoming: Which IC50 is listed for C[C@@H]1CCC[C@](O)(CNC(=O)c2cn(C3COC3)c3cccc(Cl)c23)C1 ?
Outgoing: 10 to 100 nM

Incoming: Which IC50 is listed for O=C(NCC1CCC(F)(F)CC1)c1cn(C2CCNC2)c2cccc(Cl)c12 (stereo not shown) ?
Outgoing: 10 to 100 nM

Incoming: Which IC50 is listed for O=C(NC[C@]1(O)CCCC(F)(F)C1)c1cn(CCN2CCCC2=O)c2cccc(Cl)c12 ?
Outgoing: 101 to 500 nM

----------
target: UniProt Q99572; assay: Pore permeation assay (YO PRO dye uptake); format: cell-based
parameter: IC50

Incoming: Which IC50 is listed for CC(NC(=O)c1cn(C2COC2)c2cccc(Cl)c12)[C@]12C[C@H]3C[C@H](C[C@H](C3)C1)C2 (stereo partly drawn) [Compound 62] ?
Outgoing: 10 to 100 nM

Incoming: Which IC50 is listed for O=C(NCC1(O)CCCC1)c1cn(C2COC2)c2cccc(Cl)c12 [Compound 81] ?
Outgoing: 101 to 500 nM

Incoming: Which IC50 is listed for CCN(CC)C(=O)Cn1cc(C(=O)NCC2CCC(F)(F)CC2)c2c(Cl)cccc21 [Compound 207] ?
Outgoing: 10 to 100 nM

Incoming: Which IC50 is listed for O=C(NCC1CCC(F)(F)CC1)c1cn(CC2CCNC2)c2cccc(Cl)c12 (stereo not drawn) [Compound 160] ?
Outgoing: 101 to 500 nM

Incoming: Which IC50 is listed for O=C(NCC1(N2CCN(c3ccccc3)CC2)CCOCC1)c1cn(C2COC2)c2cccc(Cl)c12 [Compound 44] ?
Outgoing: 10 to 100 nM

Incoming: Which IC50 is listed for CN1CC(n2cc(C(=O)NCC3CCC(F)(F)CC3)c3c(Cl)cccc32)C1 [Compound 119] ?
Outgoing: 101 to 500 nM

Incoming: Which IC50 is listed for O=C(NCC1CCC(F)(F)CC1)c1cn(C[C@H]2CCCN2)c2cccc(Cl)c12 [Compound 154] ?
Outgoing: 10 to 100 nM

Incoming: Which IC50 is listed for O=C(NCC1(O)CCCC2(CC2)C1)c1cn(C2COC2)c2cccc(Cl)c12 (stereo not drawn) [Compound 57] ?
Outgoing: 101 to 500 nM

Incoming: Which IC50 is listed for C[C@@H](NC(=O)c1cn(C2CCOC2)c2cccc(Cl)c12)C1C[C@H]2CC[C@@H]1C2 (stereo partly drawn) [Compound 109] ?
Outgoing: 101 to 500 nM

Incoming: Which IC50 is listed for COCCn1cc(C(=O)NCCc2cccs2)c2c(Cl)cccc21 [Compound 30] ?
Outgoing: 10 to 100 nM

Incoming: Which IC50 is listed for O=C(NCC1(O)CCCC(F)(F)C1)c1cn(CC2CCCN2)c2cccc(Cl)c12 (stereo not drawn) [Compound 155] ?
Outgoing: 10 to 100 nM

Incoming: Which IC50 is listed for COCCn1cc(C(=O)NCCC2(O)CCCC2)c2c(Cl)cccc21 [Compound 16] ?
Outgoing: 500 to 999 nM

Incoming: Which IC50 is listed for O=C(NC(CCO)C1CCCCC1)c1cn(C2CCOC2)c2cccc(Cl)c12 (stereo not drawn) [Compound 110] ?
Outgoing: 101 to 500 nM

Incoming: Which IC50 is listed for O=C(NCCCC(F)(F)F)c1cn(C2COC2)c2cccc(Cl)c12 [Compound 73] ?
Outgoing: 101 to 500 nM

Incoming: Which IC50 is listed for O=C(NCC1CCC(C(F)(F)F)CC1)c1cn(C2COC2)c2cccc(Cl)c12 (stereo not drawn) [Compound 53] ?
Outgoing: 10 to 100 nM

Incoming: Which IC50 is listed for O=C(NCC1CCC(F)(F)CC1)c1cn(CC2CCCCO2)c2cccc(Cl)c12 (stereo not drawn) [Compound 167] ?
Outgoing: 10 to 100 nM

Incoming: Which IC50 is listed for COCCn1cc(C(=O)NCC2(OC)CCC(F)(F)CC2)c2c(Cl)cccc21 [Compound 17] ?
Outgoing: 10 to 100 nM

Incoming: Which IC50 is listed for O=C(NCC1CCC(F)(F)CC1)c1cn(CCO)c2cccc(C(F)(F)F)c12 [Compound 198] ?
Outgoing: 101 to 500 nM

----------
biological target: human P2X7 receptor (Homo sapiens (Human), UniProt Q99572); test: Pore permeation assay (YO PRO dye uptake); format: cell-based
pIC50: −log10 of the molar value.
parameter: pIC50

Incoming: Which pIC50 is listed for CC1CC(O)(CNC(=O)c2cn(C3CCOC3)c3cccc(Cl)c23)CCC1(F)F (centres unmarked) ?
Outgoing: 6.00 to 6.30

Incoming: Which pIC50 is listed for C[C@H]1CCC[C@@](O)(CNC(=O)c2cn(CC(F)(F)F)c3cccc(Cl)c23)C1 ?
Outgoing: 7.00 to 8.00

Incoming: Which pIC50 is listed for O=C(NCC1(O)CCC(F)(F)CC1)c1cn(C[C@@H]2CCCO2)c2cccc(Cl)c12 ?
Outgoing: 7.00 to 8.00

Incoming: Which pIC50 is listed for O=C(NCC1CC(C(F)(F)F)CC(F)(F)C1)c1cn(CC2CCCO2)c2cccc(Cl)c12 (centres unmarked) ?
Outgoing: 7.00 to 8.00

Incoming: Which pIC50 is listed for CN1C(=O)CC[C@@H]1Cn1cc(C(=O)NCC2CCC(F)(F)CC2)c2c(Cl)cccc21 ?
Outgoing: 7.00 to 8.00

Incoming: Which pIC50 is listed for O=C(NCC1(O)CCCC(F)(F)C1)c1cn(C2COC2)c2cccc(Cl)c12 (racemic) ?
Outgoing: 7.00 to 8.00

Incoming: Which pIC50 is listed for O=C(NCC1CCC(F)(F)CC1)c1cn(C2CCCO2)c2cccc(Cl)c12 (centres unmarked) ?
Outgoing: 6.30 to 7.00

Incoming: Which pIC50 is listed for O=C(NCC1CCC(F)(F)CC1)c1cn(CC2(O)CC2)c2cccc(Cl)c12 ?
Outgoing: 7.00 to 8.00

Incoming: Which pIC50 is listed for COCCn1cc(C(=O)NCCc2ccccc2Cl)c2c(Cl)cccc21 ?
Outgoing: 6.30 to 7.00

Incoming: Which pIC50 is listed for COCCn1cc(C(=O)NCCc2ccc(Cl)cc2Cl)c2c(Cl)cccc21 ?
Outgoing: 6.30 to 7.00

Incoming: Which pIC50 is listed for O=C(NCC1C[C@@H]2CC[C@H]1C2)c1cn(C2COC2)c2cccc(Cl)c12 (some centres unmarked) ?
Outgoing: 7.00 to 8.00

Incoming: Which pIC50 is listed for CC(C)OCCn1cc(C(=O)NCC2CCC(F)(F)CC2)c2c(Cl)cccc21 ?
Outgoing: 6.30 to 7.00

Incoming: Which pIC50 is listed for O=C(NCC1(O)CCCC(F)(F)C1)c1cn(CC2CCN2)c2cccc(Cl)c12 (centres unmarked) ?
Outgoing: 7.00 to 8.00

Incoming: Which pIC50 is listed for O=C(NCC1CCC(F)(F)CC1)c1cn(CC2CCCNC2)c2cccc(Cl)c12 (centres unmarked) ?
Outgoing: 7.00 to 8.00

Incoming: Which pIC50 is listed for O=C(NCC1(O)CCC(F)(F)CC1)c1cn(CC2CCCO2)c2cccc(Cl)c12 (centres unmarked) ?
Outgoing: 7.00 to 8.00

Incoming: Which pIC50 is listed for O=C(NCC1CCCCC1)c1cn(C2COC2)c2cccc(Cl)c12 ?
Outgoing: 6.30 to 7.00

Incoming: Which pIC50 is listed for O=C(NCC1CC(C(F)(F)F)CC(F)(F)C1)c1cn(C2COC2)c2cccc(Cl)c12 (centres unmarked) ?
Outgoing: 7.00 to 8.00

----------
Kindly state IC50 for each of the entries shown.
target: human P2X7 receptor (Homo sapiens (Human), UniProt Q99572); test: Pore permeation assay (YO PRO dye uptake); assay type: cell-based

Incoming: Which IC50 is listed for O=C(NCC1(O)CCC(F)(F)CC1)c1cn(CCC(F)F)c2cccc(Cl)c12 ?
Outgoing: 0.01 to 0.1 µM

Incoming: Which IC50 is listed for O=C(NCC1(O)CCC(F)(F)CC1)c1cn(C2CCCO2)c2cccc(Cl)c12 (centres unmarked) ?
Outgoing: 0.101 to 0.5 µM

Incoming: Which IC50 is listed for C[C@H]1CCC[C@@](O)(CNC(=O)c2cn(CC3CCCO3)c3cccc(Cl)c23)C1 (some centres unmarked) ?
Outgoing: 0.01 to 0.1 µM

Incoming: Which IC50 is listed for O=C(N[C@@H](C1CCCCC1)C(F)(F)F)c1cn(C2COC2)c2cccc(Cl)c12 ?
Outgoing: 0.5 to 0.999 µM

Incoming: Which IC50 is listed for COCCn1cc(C(=O)NC[C@@]2(O)CCC[C@@H](C)C2)c2c(Cl)cccc21 ?
Outgoing: 0.01 to 0.1 µM

Incoming: Which IC50 is listed for O=C(NCC1CCC(F)(F)CC1)c1cn(C2COC2)c2cccc(Cl)c12 ?
Outgoing: 0.01 to 0.1 µM

Incoming: Which IC50 is listed for COCCn1cc(C(=O)NCC2(O)CCCC(F)(F)C2)c2c(Cl)cccc21 (centres unmarked) ?
Outgoing: 0.01 to 0.1 µM

Incoming: Which IC50 is listed for CC(C)N(C)C(=O)Cn1cc(C(=O)NCC2CCC(F)(F)CC2)c2c(Cl)cccc21 ?
Outgoing: 0.01 to 0.1 µM
